tested on: MS2 coat protein; test: apparent KD of MS2 coat protein; designed switch direction (-1 OFF switch, 1 ON switch): -1; higher = weaker reporter binding; conditions: Eterna round: R95; input ligand: microRNA oligo, concentration not stated
Provide the reported apparent KD of MS2 coat protein of each item.
Give your result in nM as a bare value.

*Q* May I ask what apparent KD of MS2 coat protein has been recorded for AAUAACAGAGGAUAUACUGUUUUAUGUGUUUAUUAUUUUGAACAUGAGGAUCACCCAUGUAGAAGGCUGAAUAA [JMF 21] (puzzle: Exclusion 2) ?
*A* 22.2

*Q* Consider next the sequence UGUGCGUAUGUGAGGAUAUGCUGGUCCUUGGCUCGGCAGAAGGCACAUGAGGAUCACCCAUGUGGUGUCGUACC [salish99_Bmod_ex4_060] (puzzle: Brourd's mod of Exclusion 4) in the same way.
*A* 33.1

*Q* Consider next the sequence AAGAAACAUGAGGAUCACCCAUGUGAGGAUAUGAUCAAGAAAAGAAAAGAAAGAAGACUCAGAAGGCACAAAGG [salish99-ex1_r3_071] (puzzle: Exclusion 1) in the same way.
*A* 210

*Q* Consider next the sequence GGGACACAUGAGGAUCACCCAUGUGAGGAUAUGUUAGUUUCGGCCAAAGCCGAAAUUAACAGAAGGCACAUACC [JR_Exclusion1_Sub020] (puzzle: Exclusion 1) in the same way.
*A* 35.7

*Q* Consider next the sequence CGGGAGGAAGGAUAUACACGGCCUCCUAGAAUAAAUCCUGGACAUGAGGAUCACCCAUGUAGAAGGUCCACCGA [Tiuslala] (puzzle: Exclusion 2) in the same way.
*A* 17.3

Source of measurements: the supplement of paper PMC9170038
